- method_summary: CCTE_Simmons_MITO_inhib_resp_rate: CCTE's HepG2 Seahorse XF Respirometric Screening Assay at Inhibited Respiratory State [full ETC block], Simmons Lab (AID 2284006)
- condition_notes: actives raise or lower the signal
The source made the active and inactive calls. The calls were made as follows: active = hit-call score of the fitted dose curve at least 0.9, where 1 is the maximum; inactive = score below 0.9.
Assign a class; possible classes are active, inactive

{"compound": "CCCC1COC(Cn2cncn2)(c2ccc(Cl)cc2Cl)O1 (stereo not given)", "group_label": "inactive"}

// query What call does the record list for CCCCNC(=O)OCC#CI ?
// result inactive

// query Please indicate how the test categorized CC(C)Oc1cc(-n2nc(C(C)(C)C)oc2=O)c(Cl)cc1Cl .
// result inactive

// query Hey, what did the test say about COC(=O)N(OC)c1ccccc1COc1ccn(-c2ccc(Cl)cc2)n1 ?
// result active

// query Kindly provide the recorded test outcome for the following compound: OC(c1ccc(Cl)cc1)(c1cncnc1)c1ccccc1Cl (stereo not given)
// result inactive

----------
- Read-out: Vascular cell adhesion molecule 1 (VCAM1), VCAM1 (gene 7412)
- method_summary: BSK_4H_VCAM1: BioMAP Diversity Plus: 4H Assay for Vascular cell adhesion molecule 1 (VCAM1) Biomarker Activity (AID 2283033)
- condition_notes: primary human endothelial cells (HUVEC); actives raise or lower the signal
The source made the active and inactive calls. How the source made its calls: active means hit-call score of the fitted dose curve at least 0.9, where 1 is the maximum; inactive means score below 0.9.
test_readout: AC50

{"compound": "CCOC(=O)CC(SP(=S)(OC)OC)C(=O)OCC (stereo unspecified)", "AC50": "inactive"}
{"compound": "CCCC1COC(Cn2cncn2)(c2ccc(Cl)cc2Cl)O1 (stereo unspecified)", "AC50": "inactive"}
{"compound": "CCOP(=S)(OCC)SCn1c(=O)oc2cc(Cl)ccc21", "AC50": "26.1 µM (active)"}
{"compound": "C#CCOS(=O)OC1CCCCC1Oc1ccc(C(C)(C)C)cc1 (stereo unspecified)", "AC50": "26.8 µM (active)"}
{"compound": "CCCN(CCC)c1c([N+](=O)[O-])cc(S(N)(=O)=O)cc1[N+](=O)[O-]", "AC50": "38.1 µM (active) [middle of 4 runs]"}
{"compound": "CCOc1cc(Oc2ccc(C(F)(F)F)cc2Cl)ccc1[N+](=O)[O-]", "AC50": "inactive"}
{"compound": "CCON=C(CC)C1=C(O)CC(c2c(C)cc(C)cc2C)CC1=O (stereo unspecified)", "AC50": "inactive"}
{"compound": "CNC(=S)S", "AC50": "22.4 µM (active)"}

// query Fill blank: measured AC50 of the compound COC(=O)C=C(C)OP(=O)(OC)OC is ____.
// result inactive

// query Give its AC50 value. Item: Fc1ccc(Oc2ccnc3cc(Cl)cc(Cl)c23)cc1
// result 30.1 µM (active)

// query Entry COc1nc(C)nc(NC(=O)NS(=O)(=O)c2ccccc2CCC(F)(F)F)n1 : reported AC50 = ?
// result inactive

----------
- tested_target: human Peripheral-type Benzodiazepine Receptor (PBR), TSPO (gene 706)
- method_summary: NVS_MP_hPBR: NovaScreen (NVS) Membrane Protein Assay for human Peripheral-type Benzodiazepine Receptor (PBR) (AID 2283331);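 also: hits reduce radioligand binding relative to DMSO baseline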
Inconclusive results are not listed. Active and inactive are the calls of the source. Rule for the calls: active = hit-call score of the fitted dose curve at least 0.9, where 1 is the maximum; inconclusive = response in the unintended direction; inactive = score below 0.9.
Please answer using one outcome listed in active, inactive

{"compound": "CON(C)C(=O)Nc1ccc(Cl)c(Cl)c1", "group_label": "active"}
{"compound": "O=C(O)COc1nc(Cl)c(Cl)cc1Cl", "group_label": "inactive"}
{"compound": "CNC(=S)S", "group_label": "inactive"}

// query What was the test verdict on C=CCC1=C(C)C(OC(=O)C2C(C=C(C)C)C2(C)C)CC1=O (stereo not given) ?
// result inactive

// query For this compound, state the assay outcome: O=C(Nc1ccccc1)Nc1ccnc(Cl)c1
// result inactive
